assay_system: DNA gyrase (Staphylococcus aureus) (UniProt P0A0K8+P20831)
experiment_summary: In vitro antibacterial activity against gram-positive organism Staphylococcus aureus 1775
Assay type: functional
quantity_measured: MIC (µg/mL)

Record excerpt, results attached:
Cc1c(N2CC[C@@H](O)C2)c(F)cn2c(=O)c(C(=O)O)cc(C3CC3)c12
1.56
Cc1c(N2CCCNCC2)c(F)cn2c(=O)c(C(=O)O)cc(C3CC3)c12
25
Cc1c(N2CCC(N)C2)c(F)cn2c(=O)c(/C(O)=C/[N+](=O)[O-])cc(C3CC3)c12 (centres undefined)
6.2

P: O=C(O)c1cc(C2CC2)c2cc(N3CCNCC3)c(F)cn2c1=O
Q: Cc1c(N2CCC(n3cccc3)C2)c(F)cn2c(=O)c(C(=O)O)cc(C3CC3)c12 (centres undefined)
Which record shows the lower MIC: the first, P , or the second, Q ? In your reply, give the label of the chosen option. Q

P: Cc1c(N2C[C@@H]3CCCN[C@@H]3C2)c(F)cn2c(=O)c(C(=O)O)cc(C3CC3)c12 (stereo in doubt; (S,S)45n)
Q: CO[C@@H]1CN(c2c(F)cn3c(=O)c(C(=O)O)cc(C4CC4)c3c2C)C[C@H]1N
Which record shows the lower MIC: the first, P , or the second, Q ? In your reply, give the label of the chosen option. P
